Known z-score of subpopulation abundance of a selection of compounds
test system: Saccharomyces cerevisiae BY4741 SeMeCo community; experiment: z-score of subpopulation abundance vs DMSO median, subpopulation auxotrophic for L; higher = larger share of this subpopulation than in DMSO controls; settings: 10 µM; 24 h; SM minimal medium; subpopulation (auxotrophy): L

Would you please look over these solved cases?
compound | system-tested | z-score of subpopulation abundance
COCCCOc1ccnc(C[S+]([O-])c2nc3ccccc3[nH]2)c1C (centres undefined) [Rebeprazole sodium] | Saccharomyces cerevisiae BY4741 SeMeCo community | -0.68
Cc1onc(-c2c(F)cccc2Cl)c1C(=O)N[C@@H]1C(=O)N2[C@@H]1SC(C)(C)[C@@H]2C(=O)O [Flucloxacillin sodium] | Saccharomyces cerevisiae BY4741 SeMeCo community | -0.25
Cc1cc(=O)n(-c2ccccc2)n1C [Antipyrine] | Saccharomyces cerevisiae BY4741 SeMeCo community | -0.59

Next compound, please.
Inquiry: Write down the reported z-score of subpopulation abundance of CC(C)N1CCN(c2ccc(OCC3COC(Cn4cncn4)(c4ccc(Cl)cc4Cl)O3)cc2)CC1 (centres undefined) [Terconazole] , test system: Saccharomyces cerevisiae BY4741 SeMeCo community.
Reply text: 0.04

----------
system: Saccharomyces cerevisiae BY4741 SeMeCo community; test: z-score of subpopulation abundance vs DMSO median, subpopulation auxotrophic for LU; higher = larger share of this subpopulation than in DMSO controls; conditions: 10 µM; 24 h; SM minimal medium; subpopulation (auxotrophy): LU
Where a name gives a salt, the structure may show the parent alone.
property: z-score of subpopulation abundance
Answer using only a numeral; do not append any unit.

molecule | system-tested | z-score of subpopulation abundance
CCOC(=O)C1=C(COCCN)NC(C)=C(C(=O)OC)C1c1ccccc1Cl (configuration not stated) [Amlodipine] | Saccharomyces cerevisiae BY4741 SeMeCo community | -7.07
COc1cc(N)c(Cl)cc1C(=O)NC1CCN(CCCOc2ccc(F)cc2)CC1OC (configuration not stated) [Cisapride] | Saccharomyces cerevisiae BY4741 SeMeCo community | -0.54
COC(=O)Nc1nc2cc(Sc3ccccc3)ccc2[nH]1 | Saccharomyces cerevisiae BY4741 SeMeCo community | -0.67
Nc1ccc2cc3ccc(N)cc3nc2c1 [Proflavine Hemisulfate] | Saccharomyces cerevisiae BY4741 SeMeCo community | -9.25
CC[C@H](C)C(=O)O[C@H]1C[C@H](O)C=C2C=C[C@H](C)[C@H](CC[C@@H](O)C[C@@H](O)CC(=O)O)[C@H]21 [Pravastatin sodium] | Saccharomyces cerevisiae BY4741 SeMeCo community | 1.81
CCCc1nn(C)c2c(=O)[nH]c(-c3cc(S(=O)(=O)N4CCN(C)CC4)ccc3OCC)nc12 [Sildenafil] | Saccharomyces cerevisiae BY4741 SeMeCo community | -0.5
CC(C)c1c(C(=O)Nc2ccccc2)c(-c2ccccc2)c(-c2ccc(F)cc2)n1CC[C@@H](O)C[C@@H](O)CC(=O)O | Saccharomyces cerevisiae BY4741 SeMeCo community | 1.58
C1CCN2C[C@@H]3C[C@@H](CN4CCCC[C@@H]34)[C@H]2C1 [(-)-Sparteine Sulfate] | Saccharomyces cerevisiae BY4741 SeMeCo community | -0.85
CCc1c2c(nc3ccc(OC(=O)N4CCC(N5CCCCC5)CC4)cc13)-c1cc3c(c(=O)n1C2)COC(=O)[C@]3(O)CC [Irinotecan HCl Trihydrate] | Saccharomyces cerevisiae BY4741 SeMeCo community | -0.66
CN1[C@@H]2CC[C@H]1C[C@@H](OC(=O)c1c[nH]c3ccccc13)C2 [Tropisetron HCl] | Saccharomyces cerevisiae BY4741 SeMeCo community | 1

Inquiry: What does the data say about its z-score of subpopulation abundance? Entry: CC1CCc2c(N3CCC(O)CC3)c(F)cc3c(=O)c(C(=O)O)cn1c23 (configuration not stated)
Reply text: 0.62

Inquiry: What does the data say about its z-score of subpopulation abundance? Entry: O=C1c2cccc3c2[C@H](CCC3)CN1[C@@H]1CN2CCC1CC2 [Palonosetron]
Reply text: -0.39

Inquiry: What does the data say about its z-score of subpopulation abundance? Entry: Fc1ccc(C(c2ccc(F)cc2)N2CCN(C/C=C/c3ccccc3)CC2)cc1 [Flunarizine 2HCl]
Reply text: 0.52

Inquiry: What does the data say about its z-score of subpopulation abundance? Entry: CC1(C)S[C@@H]2[C@H](NC(=O)[C@H](NC(=O)N3CCN(S(C)(=O)=O)C3=O)c3ccccc3)C(=O)N2[C@H]1C(=O)O [Mezlocillin Sodium]
Reply text: 0.6

Inquiry: What does the data say about its z-score of subpopulation abundance? Entry: CCN(CC)CC#CCOC(=O)C(O)(c1ccccc1)C1CCCCC1 (configuration not stated) [Oxybutynin chloride]
Reply text: -1.2

Inquiry: What does the data say about its z-score of subpopulation abundance? Entry: C=CCCCCCCCCC(=O)[O-].C=CCCCCCCCCC(=O)[O-].[Zn+2] [Zinc Undecylenate]
Reply text: -1.37

Inquiry: What does the data say about its z-score of subpopulation abundance? Entry: CCN(CC)CCNC(=O)c1cc(S(C)(=O)=O)ccc1OC [Tiapride Hydrochloride]
Reply text: 1.17

----------
tested on: Saccharomyces cerevisiae BY4741 SeMeCo community; experiment: z-score of subpopulation abundance vs DMSO median, subpopulation auxotrophic for HM; higher = larger share of this subpopulation than in DMSO controls; conditions: 10 µM; 24 h; SM minimal medium; subpopulation (auxotrophy): HM
Where a name gives a salt, the structure may show the parent alone.
property: z-score of subpopulation abundance
Answer using only a numeral; do not append any unit.

Would you please look over these solved cases?
compound | property | observed
CC[C@H](c1ccc(O)cc1)[C@@H](CC)c1ccc(O)cc1 | z-score of subpopulation abundance | -0.94
CCCCN1CCCC[C@H]1C(=O)Nc1c(C)cccc1C [Levobupivacaine HCl] | z-score of subpopulation abundance | -1.34
CN(C/C=C/C#CC(C)(C)C)Cc1cccc2ccccc12 [Terbinafine HCl] | z-score of subpopulation abundance | -0.78
COC(=O)C1=C(C)NC(C)=C(C(=O)OCC(C)C)C1c1ccccc1[N+](=O)[O-] (configuration not stated) | z-score of subpopulation abundance | 0.97
CC[C@H]1OC(=O)[C@H](C)[C@@H](O[C@H]2C[C@@](C)(OC)[C@@H](O)[C@H](C)O2)[C@H](C)[C@@H](O[C@@H]2O[C@H](C)C[C@H](N(C)C)[C@H]2O)[C@](C)(O)C[C@@H](C)CN(C)[C@H](C)[C@@H](O)[C@]1(C)O [Azithromycin Dihydrate] | z-score of subpopulation abundance | 0.39
C[C@@H]1CN(c2c(F)c(N)c3c(=O)c(C(=O)O)cn(C4CC4)c3c2F)C[C@H](C)N1 | z-score of subpopulation abundance | -0.01

Inquiry: What does the data say about its z-score of subpopulation abundance? Entry: "N#C/C(=C1/SC[C@@H](c2ccc(Cl)cc2Cl)S1)n1ccnc1"
Reply text: 7.54

----------
system: Saccharomyces cerevisiae BY4741 SeMeCo community; experiment: mean cell size (pixel area) (pixels); higher = larger cells; details: 10 µM; 24 h; SM minimal medium
Where a name gives a salt, the structure may show the parent alone.
property: mean cell size
Answer using only a numeral; do not append any unit.

compound | system-tested | observed
CO/N=C(\C(=O)N[C@@H]1C(=O)N2C(C(=O)O)=CCS[C@H]12)c1csc(N)n1 [Ceftizoxime] | Saccharomyces cerevisiae BY4741 SeMeCo community | 12.5
COc1ccc(C(=O)NCc2ccc(OCCN(C)C)cc2)cc1OC [Itopride hydrochloride] | Saccharomyces cerevisiae BY4741 SeMeCo community | 12.4

Next compound, please.
Inquiry: What does the data say about its mean cell size? Entry: CC[C@@H]1/C=C(\C)C[C@H](C)C[C@H](OC)[C@H]2O[C@@](O)(C(=O)C(=O)N3CCCC[C@H]3C(=O)O[C@H](/C(C)=C/[C@@H]3CC[C@@H](O)[C@H](OC)C3)[C@H](C)[C@@H](O)CC1=O)[C@H](C)C[C@@H]2OC [Ascomycin (FK520)]
Reply text: 11.8

----------
test system: Saccharomyces cerevisiae BY4741 SeMeCo community; experiment: z-score of subpopulation abundance vs DMSO median, subpopulation auxotrophic for HLU; higher = larger share of this subpopulation than in DMSO controls; conditions: 10 µM; 24 h; SM minimal medium; subpopulation (auxotrophy): HLU
Known z-score of subpopulation abundance of a selection of compounds
Answer using only a numeral; do not append any unit.

Would you please look over these solved cases?
compound | z-score of subpopulation abundance
O=S1(=O)CCN(CN2CCS(=O)(=O)NC2)CN1 | -0.43
COC(=O)C1=C(C)NC(C)=C(C(=O)OCCN2CCN(C(c3ccccc3)c3ccccc3)CC2)C1c1cccc([N+](=O)[O-])c1 (stereo unspecified) [Manidipine 2HCl] | 0.54
COc1cc(N)c(Cl)cc1C(=O)NC1CCN(CCCOc2ccc(F)cc2)CC1OC (stereo unspecified) [Cisapride hydrate] | 0.05
C[N+](C)(C)CCOC(=O)CCC(=O)OCC[N+](C)(C)C [Succinylcholine Chloride Dihydrate] | -0.97
CO[C@@H]1[C@@H](O[C@@H]2O[C@H](C)[C@@H](O[C@H]3C[C@@](C)(O)[C@@H](O)[C@H](C)O3)[C@H](N(C)C)[C@H]2O)[C@@H](CC=O)C[C@@H](C)[C@@H](O[C@H]2CC[C@H](N(C)C)[C@@H](C)O2)/C=C/C=C/C[C@@H](C)OC(=O)C[C@H]1OC(C)=O | 1.65

Inquiry: Write down the reported z-score of subpopulation abundance of CC[C@H]1OC(=O)C[C@@H](O)[C@H](C)[C@@H](O[C@@H]2O[C@H](C)[C@@H](O)[C@H](N(C)C)[C@H]2O)[C@@H](CCN2C[C@H](C)C[C@H](C)C2)C[C@@H](C)C(=O)/C=C/C(C)=C/[C@@H]1CO[C@@H]1O[C@H](C)[C@@H](O)[C@@H](OC)[C@H]1OC [Tilmicosin] , test system: Saccharomyces cerevisiae BY4741 SeMeCo community.
Reply text: 0.58
